Catalogue of median fluorescence readings, one per entry.
Biological target: T1, FZD10 cysteine-rich domain (CRD), MYC-tagged and GPI-anchored on CHO cells (human, UniProt Q9ULW2 30-156, GPI anchor)
T1 construct: also called FZD10 CRD; CHO-myc-FZDGPI; not shown: MYC tag and GPI anchor signal
T1 sequence: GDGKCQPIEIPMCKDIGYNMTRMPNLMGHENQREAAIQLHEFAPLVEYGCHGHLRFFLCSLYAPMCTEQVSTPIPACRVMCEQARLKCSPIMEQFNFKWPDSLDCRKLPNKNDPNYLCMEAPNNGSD
Assay: flow cytometry, CHO-CRD cells;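 further: flow cytometry of Fab binding to CHO cells overexpressing a Frizzled CRD, with binding defined as median fluorescence over twice that of CHO cells lacking any Frizzled CRD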
Write the number on its own, no unit after it.

Study these solved cases before continuing.
>  <Binder>
Fab-2935 (Fab, V domains shown, Fab; also called Fv-2935) VH: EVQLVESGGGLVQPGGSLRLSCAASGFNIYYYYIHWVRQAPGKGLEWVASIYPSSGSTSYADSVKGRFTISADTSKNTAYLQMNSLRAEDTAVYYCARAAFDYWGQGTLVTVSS VL: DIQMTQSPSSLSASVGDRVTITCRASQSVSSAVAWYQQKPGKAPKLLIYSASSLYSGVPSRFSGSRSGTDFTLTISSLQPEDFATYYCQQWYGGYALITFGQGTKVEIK

>  <median fluorescence>
3.34

$$$$
>  <Binder>
Fab-2908 (Fab, V domains shown, Fab; also called Fv-2908) VH: EVQLVESGGGLVQPGGSLRLSCAASGFNFSSSSIHWVRQAPGKGLEWVAYIYPSYSYTYYADSVKGRFTISADTSKNTAYLQMNSLRAEDTAVYYCARAYYGHFHAMDYWGQGTLVTVSS VL: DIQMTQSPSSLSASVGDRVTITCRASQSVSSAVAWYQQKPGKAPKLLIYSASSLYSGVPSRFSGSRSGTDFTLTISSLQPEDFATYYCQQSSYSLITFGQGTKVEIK

>  <median fluorescence>
3.08

$$$$
>  <Binder>
Fab-2910 (Fab, V domains shown, Fab) VH: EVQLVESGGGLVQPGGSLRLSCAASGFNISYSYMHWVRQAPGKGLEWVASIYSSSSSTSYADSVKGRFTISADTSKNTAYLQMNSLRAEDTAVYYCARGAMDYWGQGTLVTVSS VL: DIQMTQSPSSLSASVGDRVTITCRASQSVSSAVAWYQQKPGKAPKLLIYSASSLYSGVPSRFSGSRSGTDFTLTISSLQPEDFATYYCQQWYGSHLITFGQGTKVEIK

>  <median fluorescence>
2.81

$$$$
>  <Binder>
Fab-2923 (Fab, V domains shown, Fab; also called Fv-2923) VH: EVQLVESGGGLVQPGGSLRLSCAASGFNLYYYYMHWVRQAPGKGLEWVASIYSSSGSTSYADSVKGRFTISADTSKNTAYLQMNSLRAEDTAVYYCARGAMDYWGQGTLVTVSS VL: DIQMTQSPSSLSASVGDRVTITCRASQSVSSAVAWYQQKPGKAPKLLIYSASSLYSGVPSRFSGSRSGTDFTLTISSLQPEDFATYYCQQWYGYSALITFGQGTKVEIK

>  <median fluorescence>
4.22

$$$$

Query :: What measured median fluorescence goes with Fab-2918 (Fab, V domains shown, Fab; also called Fv-2918) VH: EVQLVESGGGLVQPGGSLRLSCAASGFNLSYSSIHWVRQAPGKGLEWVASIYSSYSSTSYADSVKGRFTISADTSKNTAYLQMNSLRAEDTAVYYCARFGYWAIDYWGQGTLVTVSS VL: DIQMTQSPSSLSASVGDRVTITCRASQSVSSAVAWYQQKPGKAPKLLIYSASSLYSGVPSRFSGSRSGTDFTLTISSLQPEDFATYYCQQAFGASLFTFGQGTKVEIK ?
Result :: 2.81

These entries and their values trace back to patent US20210253718A1.
